TARGET_DESC: CDK2/CycE (Homo sapiens, UniProt P24941)
Construct: GST; purchased ProQinase GmbH (Freiburg, Germany); host or cells: insect cells (Sf-9)
TEST_DETAILS: CDK2/CycE kinase assay (TR-FRET)
Type: biochemical
CONDITION_NOTES: ATP 10 μM, values given in μM
Record form. Attribute: IC50. Fill in for each entry.
Just the number please, in µM, no unit attached.

Challenge: Value lookup for IC50; key = NS(=O)(=O)Cc1cccc(Nc2ncnc(-c3ccccc3Oc3ccccc3)n2)c1
Response given: 4

Challenge: Value lookup for IC50; key = COc1ccccc1-c1ncnc(Nc2cccc(CS(N)(=O)=O)c2)n1
Response given: 1.8

Challenge: Value lookup for IC50; key = NS(=O)(=O)Cc1cccc(Nc2ncnc(-c3ccc(F)cc3C(F)(F)F)n2)c1
Response given: 15

Challenge: Value lookup for IC50; key = CC(=O)Nc1cc(F)ccc1-c1ncnc(Nc2cccc(CS(N)(=O)=O)c2)n1
Response given: 3

Challenge: Value lookup for IC50; key = CNS(=O)(=O)Cc1cccc(Nc2cc(-c3ccccc3OC)ncn2)c1 [Ref2, reference compound]
Response given: 1.6

Challenge: Value lookup for IC50; key = N#Cc1cc(F)ccc1-c1ncnc(Nc2cccc(CS(N)(=O)=O)c2)n1
Response given: 14

Challenge: Value lookup for IC50; key = COc1c(-c2ncnc(Nc3cccc(CS(N)(=O)=O)c3)n2)ccc(F)c1F
Response given: 12

* * *

TARGET_DESC: CDK7/CyclinH/Mat1 (Homo sapiens, UniProt P50613)
Sequence (P50613 whole entry): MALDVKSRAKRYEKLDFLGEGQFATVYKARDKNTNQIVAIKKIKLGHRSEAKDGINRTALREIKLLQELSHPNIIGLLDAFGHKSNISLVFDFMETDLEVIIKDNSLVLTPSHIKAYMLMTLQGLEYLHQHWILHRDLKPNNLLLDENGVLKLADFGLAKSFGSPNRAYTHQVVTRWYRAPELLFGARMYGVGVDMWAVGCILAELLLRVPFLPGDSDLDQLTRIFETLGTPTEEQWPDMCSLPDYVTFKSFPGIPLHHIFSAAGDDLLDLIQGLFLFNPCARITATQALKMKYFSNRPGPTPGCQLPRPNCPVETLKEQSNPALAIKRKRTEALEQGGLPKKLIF
Sequence (P51946 whole entry partner): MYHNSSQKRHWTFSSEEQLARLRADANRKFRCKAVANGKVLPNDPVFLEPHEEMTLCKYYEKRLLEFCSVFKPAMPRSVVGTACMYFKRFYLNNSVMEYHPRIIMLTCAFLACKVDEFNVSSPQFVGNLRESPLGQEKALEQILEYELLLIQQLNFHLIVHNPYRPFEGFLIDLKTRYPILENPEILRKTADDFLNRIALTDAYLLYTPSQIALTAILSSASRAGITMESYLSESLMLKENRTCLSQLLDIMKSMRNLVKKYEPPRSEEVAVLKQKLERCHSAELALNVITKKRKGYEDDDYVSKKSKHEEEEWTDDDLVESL
Sequence (P51948 whole entry partner): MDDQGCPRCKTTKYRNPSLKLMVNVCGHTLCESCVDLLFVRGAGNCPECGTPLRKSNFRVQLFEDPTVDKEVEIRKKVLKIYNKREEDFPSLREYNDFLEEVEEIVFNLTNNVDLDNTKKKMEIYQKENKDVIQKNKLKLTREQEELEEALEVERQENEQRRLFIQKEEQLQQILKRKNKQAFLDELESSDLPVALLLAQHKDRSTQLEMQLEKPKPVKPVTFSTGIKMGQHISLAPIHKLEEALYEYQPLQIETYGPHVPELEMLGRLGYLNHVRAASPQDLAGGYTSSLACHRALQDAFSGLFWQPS
TEST_DETAILS: LanthaScreen Eu Kinase Binding Assay, CDK7
CONDITION_NOTES: tracer 236, read-out: Affinity (Kd) CDK7
METRIC: Kd

Challenge: Value lookup for Kd; key = COc1ccccc1-c1ncnc(Nc2ccc(CS(N)(=O)=O)cc2)n1 [Compound T1]
Response given: > 10 µM

Challenge: Value lookup for Kd; key = COc1ccccc1-c1ncnc(Nc2cccc([N+](=O)[O-])c2)n1 [Compound H1]
Response given: > 30 µM

Challenge: Value lookup for Kd; key = COc1ccccc1-c1ncnc(Nc2cccc(NC(=O)Nc3ccccc3)c2)n1 [Compound N1]
Response given: > 30 µM

Challenge: Value lookup for Kd; key = COc1ccccc1-c1ncnc(Nc2ccccc2)n1 [Compound P1]
Response given: > 30 µM

Challenge: Value lookup for Kd; key = COc1cc(C(F)(F)F)ccc1-c1ncnc(Nc2cccc(CS(N)(=O)=O)c2)n1 [Compound B8]
Response given: > 10 µM

Challenge: Value lookup for Kd; key = COc1cc(F)ccc1-c1ncnc(Nc2cccc(CCS(N)(=O)=O)c2)n1 [Compound D2]
Response given: > 10 µM

Challenge: Value lookup for Kd; key = NS(=O)(=O)Cc1cccc(Nc2ncnc(-c3cccc4c3OCO4)n2)c1 [Compound B15]
Response given: > 10 µM

Challenge: Value lookup for Kd; key = COc1ccccc1-c1ncnc(Nc2cccc(C(N)=O)c2)n1 [Compound E1]
Response given: > 10 µM

Challenge: Value lookup for Kd; key = COc1c(F)cc(F)cc1-c1ncnc(Nc2cccc(CS(N)(=O)=O)c2)n1 [Compound B5]
Response given: > 10 µM

Challenge: Value lookup for Kd; key = NS(=O)(=O)Cc1cccc(Nc2ncnc(-c3ccccc3OCc3ccccc3)n2)c1 [Compound B13]
Response given: > 10 µM

Challenge: Value lookup for Kd; key = CCOC(=O)N=S(C)(=O)c1cccc(Nc2ncnc(-c3ccccc3OC)n2)c1 (racemic) [Compound G1]
Response given: > 10 µM

Challenge: Value lookup for Kd; key = COc1ccncc1-c1ncnc(Nc2cccc(CS(N)(=O)=O)c2)n1 [Compound B18]
Response given: > 10 µM

Challenge: Value lookup for Kd; key = NCCCCOc1ccccc1-c1ncnc(Nc2cccc(CS(N)(=O)=O)c2)n1 [Compound I1]
Response given: > 30 µM

Challenge: Value lookup for Kd; key = COc1ccccc1-c1ncnc(Nc2cccc(CCS(N)(=O)=O)c2)n1 [Compound D1]
Response given: > 10 µM

Challenge: Value lookup for Kd; key = COc1ccc(F)cc1-c1ncnc(Nc2cccc(CS(N)(=O)=O)c2)n1 [Compound B3]
Response given: > 10 µM

Challenge: Value lookup for Kd; key = CCOc1ccccc1-c1ncnc(Nc2cccc(CS(N)(=O)=O)c2)n1 [Compound B12]
Response given: > 10 µM

Challenge: Value lookup for Kd; key = Nc1ccc(-c2ncnc(Nc3cccc(CS(N)(=O)=O)c3)n2)cn1 [Compound B23]
Response given: > 10 µM
